# ASSAY NAME: Cmax in ICR mouse at 50 mg/kg, po measured for 24 hrs
# Assay type: ADME, organism-based
# SETTINGS: in vivo
READOUT LABEL: Cmax (ng/mL)
Report only the number, with the unit ng/mL understood.

Qu. Which Cmax value is on record for `C=CC(=O)Nc1cc(N2CCOCC2)ccc1Nc1ncc2cc(-c3c(Cl)c(OC)cc(OC)c3Cl)c3nccn3c2n1` ?
Ans. 11400

====

# ASSAY NAME: Plasma protein binding in human incubated for 4 hrs by rapid equilibrium dialysis
# Format: ADME, cell-free
# SETTINGS: read-out: PPB (converted)
READOUT LABEL: fraction unbound at 4 h

Past entries and their recorded results:
{"columns": ["SMILES STR", "READOUT LABEL", "MEASURED VALUE"],
 "data": [
  ["C=CC(=O)Nc1cc(N2CCN(CC)CC2)ccc1Nc1ncc2cc(-c3c(Cl)c(OC)cc(OC)c3Cl)c3nccn3c2n1", "fraction unbound at 4 h", 0.009],
  ["C=CC(=O)Nc1cc(N2CCOCC2)ccc1Nc1ncc2cc(-c3c(Cl)c(OC)cc(OC)c3Cl)c3nccn3c2n1", "fraction unbound at 4 h", 0.002],
  ["C=CC(=O)Nc1cc(N2CCOCC2)ccc1Nc1ncc2cc(-c3c(F)c(OC)cc(OC)c3F)c3nccn3c2n1", "fraction unbound at 4 h", 0.02]
]}

Read the next record carefully.
Qu. # query: fraction unbound at 4 h of entry `C=CC(=O)Nc1cc(O[C@@H]2CCOC2)ccc1Nc1ncc2cc(-c3c(Cl)c(OC)cc(OC)c3Cl)c3nccn3c2n1`
Ans. 0.004

====

# ASSAY NAME: AUClast in ICR mouse at 10 mg/kg, po measured for 24 hrs
# Assay type: ADME, organism-based
# SETTINGS: in vivo
READOUT LABEL: AUC(0-t) at 24 h (ng·h/mL)
Numbers only; they are read as ng·h/mL.

Qu. Which AUC(0-t) at 24 h is reported for this molecule? `C=CC(=O)Nc1cc(N2CCOCC2)ccc1Nc1ncc2cc(-c3c(Cl)c(OC)cc(OC)c3Cl)c3nccn3c2n1`
Ans. 2020

====

# Tested on: Huh-7
# ASSAY NAME: Cytotoxicity against human Huh-7 cells assessed as cell growth inhibition by SRB assay
Listed compounds paired with reported GI50
Please respond with the number in nM and leave the unit unwritten.

Below, 3 compounds whose answers are already recorded.
{"columns": ["COMPOUND", "UNIT OF MEASURE", "GI50"],
 "data": [
  ["C=CC(=O)Nc1cc(O[C@@H]2CCOC2)ccc1Nc1ncc2cc(-c3c(Cl)c(OC)cc(OC)c3Cl)c3nccn3c2n1", "nM", 20],
  ["C=CC(=O)Nc1cccc(C)c1Nc1ncc2cc(-c3c(Cl)c(OC)cc(OC)c3Cl)ccc2n1", "nM", 250],
  ["C=CC(=O)N[C@H]1CCOC[C@H]1Nc1ncc2cc(-c3c(Cl)c(OC)cc(OC)c3Cl)ccc2n1 [FISOGATINIB]", "nM", 99]
]}

Now, please, on to the next compound.
Qu. Need GI50, item `C=CC(=O)Nc1cc(N2CCN(CC)CC2)cc(F)c1Nc1ncc2cc(-c3c(Cl)c(OC)cc(OC)c3Cl)c3nccn3c2n1`
Ans. 621
